# TARGET OR TEST SYSTEM: human recombinant glucocorticoid receptor (Homo sapiens)
# Construct: This GR was a full-length steroid hormone receptor; host or cells: recombinant baculovirus-infected insect cells
# Sequence (P04150 1-777): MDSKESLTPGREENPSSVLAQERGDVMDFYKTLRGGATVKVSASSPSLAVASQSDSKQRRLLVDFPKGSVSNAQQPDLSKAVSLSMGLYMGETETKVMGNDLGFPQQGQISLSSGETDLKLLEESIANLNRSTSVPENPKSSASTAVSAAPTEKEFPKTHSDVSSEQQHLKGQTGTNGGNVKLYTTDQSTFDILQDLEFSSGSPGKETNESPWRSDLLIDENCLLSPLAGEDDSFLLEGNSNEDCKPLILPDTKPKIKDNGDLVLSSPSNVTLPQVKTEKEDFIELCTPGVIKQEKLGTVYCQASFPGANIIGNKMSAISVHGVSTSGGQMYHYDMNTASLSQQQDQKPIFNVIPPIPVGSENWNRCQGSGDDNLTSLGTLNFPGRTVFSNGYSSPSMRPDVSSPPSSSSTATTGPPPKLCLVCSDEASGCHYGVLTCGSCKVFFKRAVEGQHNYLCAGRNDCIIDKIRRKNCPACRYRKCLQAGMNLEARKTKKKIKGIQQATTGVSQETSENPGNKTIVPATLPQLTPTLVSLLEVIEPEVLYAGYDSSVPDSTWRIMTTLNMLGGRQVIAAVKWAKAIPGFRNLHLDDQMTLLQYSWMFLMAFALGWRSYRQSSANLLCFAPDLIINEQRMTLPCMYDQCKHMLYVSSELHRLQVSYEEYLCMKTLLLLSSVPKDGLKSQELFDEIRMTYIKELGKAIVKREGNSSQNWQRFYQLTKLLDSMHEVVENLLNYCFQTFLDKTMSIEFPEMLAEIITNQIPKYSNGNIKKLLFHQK
# PROCEDURE SUMMARY: Glucocorticoid receptor binding displacement assay with 3H-dexamethasone
# CONDITION SUMMARY: displacement of 2.5 nM 3H-dexamethasone; IC50 converted to Ki by Cheng-Prusoff; read-out: Ki
Consider the following compounds and their measured Ki readings.
OBSERVATION TYPE: Ki

- COMPOUND STRUCTURE STRING: "O=c1[nH]c(N2CCC(c3ccccc3)CC2)c(Cc2cccc(Cl)c2)c(=O)[nH]1"
  TARGET OR TEST SYSTEM: "human recombinant glucocorticoid receptor (Homo sapiens)"
  OBSERVED RESULT: "< 10 nM"
- COMPOUND STRUCTURE STRING: "COc1cccc(C2CCN(c3[nH]c(=O)[nH]c(=O)c3Cc3ccccc3)CC2)c1"
  TARGET OR TEST SYSTEM: "human recombinant glucocorticoid receptor (Homo sapiens)"
  OBSERVED RESULT: "< 10 nM"
- COMPOUND STRUCTURE STRING: "O=c1[nH]c(N2CCC(Cc3ccccc3)CC2)c(Cc2cccc(Cl)c2)c(=O)n1-c1ccccc1"
  TARGET OR TEST SYSTEM: "human recombinant glucocorticoid receptor (Homo sapiens)"
  OBSERVED RESULT: "> 100 nM"
- COMPOUND STRUCTURE STRING: "CC(C)=CCc1c(N2CCC(Cc3ccccc3)CC2)[nH]c(=O)n(C)c1=O"
  TARGET OR TEST SYSTEM: "human recombinant glucocorticoid receptor (Homo sapiens)"
  OBSERVED RESULT: "> 100 nM"
